Test system: SF-539 CNS
Assay: NCI tumour cell line growth inhibition, 48 h

{"compound": "NC(CCCC(N)P(=O)(O)O)P(=O)(O)O (stereo not drawn)", "TGI": "> 100 µM"}
{"compound": "C[C@]12CC=CC(=O)[C@@]1(C)CCC(=O)C2", "TGI": "> 100 µM"}
{"compound": "N#C[S-].[La+3].c1cnc2c(c1)ccc1cccnc12.c1cnc2c(c1)ccc1cccnc12.c1cnc2c(c1)ccc1cccnc12", "TGI": "14.1 µM"}
{"compound": "N/N=C\\c1c2ccccc2c(=O)n2c1oc1ccccc12", "TGI": "23.6 µM"}
{"compound": "O=C(c1ccccc1)c1ccc2n[se]nc2c1", "TGI": "43 µM"}
{"compound": "CCOC(=O)CCC(NC(=O)c1ccc(Nc2nc3ccc(C(F)(F)F)cc3nc2-c2ccccc2)cc1)C(=O)OCC (stereo not drawn)", "TGI": "> 100 µM"}
{"compound": "CCOc1cc(C(C)(C)C)ccc1C1=N[C@H](c2ccc(Cl)cc2)[C@H](c2ccc(Cl)cc2)N1C(=O)N1CCN(CC#Cc2cccc3c2CN([C@@H]2CCC(=O)NC2=O)C3=O)CC1", "TGI": "> 100 µM"}
{"compound": "CC(=O)Oc1c(C)c(-c2ccccc2)c(C)c(-c2ccccc2)c1C(=S)c1ccccc1", "TGI": "> 100 µM"}
{"compound": "C[C@@H](C(=O)O)N1C(c2ccco2)=C(/C(C=O)=C\\c2ccco2)C(=O)/C1=C\\c1ccco1", "TGI": "> 100 µM"}
{"compound": "CCC[CH2][Sn]([CH2]CCC)([O]C(=O)CN)[O]C(=O)CN", "TGI": "> 100 µM"}
{"compound": "Cn1c(Cl)c(/C=C2/C(=O)Nc3ccccc32)c2ccccc21", "TGI": "1.06 µM"}
{"compound": "CC1(C)N/C(=C\\[N+](=O)[O-])C(C)(C)N1O", "TGI": "> 10 µM"}
{"compound": "Cc1cc(C)c2c(=O)cc(-c3cccc4ccccc34)[nH]c2n1", "TGI": "> 19.9 µM"}
{"compound": "O=C1C(=O)c2ccccc2C(O)=C1C(C1=C(O)c2ccccc2C(=O)C1=O)c1ccc(Cl)cc1", "TGI": "32.9 µM"}
{"compound": "CCCCCCNCCc1cnc[nH]1", "TGI": "> 100 µM"}
{"compound": "CCOC1C(Br)Cn2c(=O)c3cc4ccccc4cc3c(=O)n2C1C (stereo not drawn)", "TGI": "> 100 µM"}
{"compound": "CC1C2CC(C(S(=O)(=O)O)C2=O)C1(C)C (stereo not drawn)", "TGI": "> 100 µM"}
{"compound": "COc1cc(Nc2ncccc2C(=O)Nc2nc3ccc(F)cc3s2)cc(OC)c1OC", "TGI": "> 100 µM"}

====

System: T-47D breast
Assay: NCI tumour cell line growth inhibition, 48 h
// reported TGI for each item listed
observed property: TGI

{"molecule": "CC(C)(C)C1=C(Br)C(C(C)(C)C)OP1(=O)O (centres undefined)", "reported value": "> 100 µM"}
{"molecule": "Cc1cc(Cl)ccc1OCC(=O)Nc1nc2c(Cl)cccc2s1", "reported value": "> 100 µM"}
{"molecule": "O=C(O)CCCc1ccc2ccc3ccccc3c2c1", "reported value": "> 100 µM"}
{"molecule": "CC1(C)N/C(=C\\[N+](=O)[O-])C(C)(C)N1O", "reported value": "> 10 µM"}

====

Tested on: UACC-62 melanoma
Assay: NCI tumour cell line growth inhibition, 48 h; in the data active means GI50 below about 0.43 µM; inactive means the rest
Labels: yes (1) for active, no (0) for inactive

{"compound": "COc1ccc2c(c1)OC1=C(C(=O)OC1)C2c1cc(OC)c2c(c1)OCCO2 (stereo not drawn)", "qualitative label": "yes (1)"}
{"compound": "O=c1[nH]c2ccccc2cc1-c1nc2ccc(Cl)cc2[nH]1", "qualitative label": "no (0)"}
{"compound": "COc1cccc2c1C(=N)c1c(O)c3c(c(O)c1C2=O)C[C@@](O)(C(C)=O)C[C@@H]3O[C@H]1C[C@H](N)[C@H](O)[C@H](C)O1", "qualitative label": "yes (1)"}

====

Tested on: SK-MEL-28 melanoma
Experiment: NCI tumour cell line growth inhibition, 48 h
// reported TGI for each item listed

{"molecule": "O=C1NC(=S)S/C1=C/c1ccc2c(c1)OCO2", "modifier sign": ">", "TGI (µM)": 100}
{"molecule": "CC(C)(C)C1CCC(=O)/C(=C/CC2CC(=O)N(c3ccccc3)C(=O)C2)C1 (stereo not drawn)", "modifier sign": "=", "TGI (µM)": 47.4}
{"molecule": "COc1cc(NCC(C#N)C#N)ccc1N=Nc1ccc(Cl)cc1", "modifier sign": "=", "TGI (µM)": 80.1}
{"molecule": "CC(=O)C1C(c2ccccc2)C2(C)OC(=O)C(C#N)C12C (stereo not drawn)", "modifier sign": ">", "TGI (µM)": 100}
{"molecule": "COc1ccc(Cn2c3c(cc(OC(C)=O)c2=O)Cc2ccccc2-3)cc1", "modifier sign": ">", "TGI (µM)": 50}
{"molecule": "CN(C)Cc1cc(C(F)(F)F)ccc1C(O)(c1ccccc1)c1ccccc1", "modifier sign": "=", "TGI (µM)": 31}
{"molecule": "N#Cc1c(-c2ccc(Cl)cc2)c2c(n(C3OC(CO)C(O)C(O)C3O)c1=S)CCCC2 (stereo not drawn)", "modifier sign": ">", "TGI (µM)": 100}
{"molecule": "CCOc1cccc(/C=N/NC(=O)c2cccc(Nc3ccnc(C(F)(F)F)c3)c2)c1O", "modifier sign": "=", "TGI (µM)": 36.6}

====

Test system: SK-MEL-2 melanoma
Assay: NCI tumour cell line growth inhibition, 48 h
// reported TGI for each item listed

{"compound": "O=C1C=C(C2OC(CO)C(O)C2O)C(=O)N1 (configuration not stated)", "system under test": "SK-MEL-2 melanoma", "TGI": "> 100 µM"}
{"compound": "CCC1C[N+]23CCc4c([nH]c5ccccc45)C2CC1CC3 (configuration not stated)", "system under test": "SK-MEL-2 melanoma", "TGI": "> 100 µM"}
{"compound": "C=CCCON(C(=O)OC(C)(C)C)c1ccccc1", "system under test": "SK-MEL-2 melanoma", "TGI": "> 100 µM"}
{"compound": "Cc1ccc(C(=O)N/N=C(\\N=Nc2cccc([N+](=O)[O-])c2)c2ccc(N(CCC#N)CCC#N)cc2C)cc1", "system under test": "SK-MEL-2 melanoma", "TGI": "> 77.3 µM"}
{"compound": "NC(N)=NS(=O)(=O)c1ccc(NNc2c3ccccc3nc3ccccc23)cc1", "system under test": "SK-MEL-2 melanoma", "TGI": "37.1 µM"}
{"compound": "Cc1ccc(C2(O)CSC(=NC34CC5CC(CC(C5)C3)C4)N2C(P(=O)(O)O)P(=O)(O)O)cc1 (configuration not stated)", "system under test": "SK-MEL-2 melanoma", "TGI": "> 100 µM"}
{"compound": "CC1(C)N=C(N)N=C(N)N1c1ccc(CCC(=O)Nc2ccc(S(=O)(=O)F)cc2)c(Cl)c1", "system under test": "SK-MEL-2 melanoma", "TGI": "> 100 µM"}
{"compound": "CC(=O)OCC1OC(N2C(c3ccccc3)=CC(c3cccs3)C(C#N)=C2S)C(OC(C)=O)C(OC(C)=O)C1OC(C)=O (configuration not stated)", "system under test": "SK-MEL-2 melanoma", "TGI": "> 100 µM"}
{"compound": "N#CSCC(Cl)=CCl (mixture of isomers)", "system under test": "SK-MEL-2 melanoma", "TGI": "> 100 µM"}
{"compound": "NC(CSC(c1ccccc1)(c1ccccc1)c1ccccc1)C(=O)NCC(=O)O (configuration not stated)", "system under test": "SK-MEL-2 melanoma", "TGI": "7.93 µM"}
{"compound": "COc1ccc([C@@]2(O)c3c(ccc(O)c3OC)[C@H]2OC)c(OC)c1", "system under test": "SK-MEL-2 melanoma", "TGI": "> 100 µM"}
{"compound": "COc1c(=O)cc2cc[nH]c3cc[nH]c1c23", "system under test": "SK-MEL-2 melanoma", "TGI": "> 100 µM"}
{"compound": "Cc1cn(-c2cc(NC(=O)c3cccc(C#Cc4cccc5[nH]nc(N)c45)c3)cc(C(F)(F)F)c2)cn1", "system under test": "SK-MEL-2 melanoma", "TGI": "8.14 µM"}
{"compound": "C/C(=N\\NS(=O)(=O)c1ccc(C)cc1)c1ccccn1", "system under test": "SK-MEL-2 melanoma", "TGI": "> 100 µM"}
{"compound": "CN(C)CCC(=O)N1C/C(=C\\c2ccc(Cl)c(Cl)c2)C(=O)/C(=C/c2ccc(Cl)c(Cl)c2)C1", "system under test": "SK-MEL-2 melanoma", "TGI": "3.34 µM"}
{"compound": "CCN(CC)CCNC(Cc1ccccc1)c1ccc(OCc2ccccc2)cc1 (configuration not stated)", "system under test": "SK-MEL-2 melanoma", "TGI": "9.74 µM"}
{"compound": "N[C@@H]1CCN(c2c(F)cc3c(=O)c(C(=O)O)cn4c3c2Oc2c-4ccc3c2ccc2ccccc23)C1", "system under test": "SK-MEL-2 melanoma", "TGI": "> 100 µM"}
{"compound": "CC(=O)OCC1OC(N2C(C)=C(C(C)=O)C(c3ccc(Cl)cc3)C(C#N)=C2S)C(OC(C)=O)C(OC(C)=O)C1OC(C)=O (configuration not stated)", "system under test": "SK-MEL-2 melanoma", "TGI": "> 100 µM"}
{"compound": "CC(=O)C(C(c1ccccc1)N1CCOCC1)N1CCOCC1 (configuration not stated)", "system under test": "SK-MEL-2 melanoma", "TGI": "> 100 µM"}
{"compound": "O=C(O)CSCCc1ccccc1", "system under test": "SK-MEL-2 melanoma", "TGI": "> 100 µM"}
{"compound": "NC(=Nc1ccccc1Cl)c1ccccc1N", "system under test": "SK-MEL-2 melanoma", "TGI": "> 100 µM"}
{"compound": "N[C@H](C(=O)O)[C@@H]1CC(Cl)=NO1", "system under test": "SK-MEL-2 melanoma", "TGI": "355 µM"}
{"compound": "O=S(Cc1ccccc1)c1nc2ccccc2nc1-c1cccs1 (configuration not stated)", "system under test": "SK-MEL-2 melanoma", "TGI": "24.2 µM"}
{"compound": "CC1(O)C(C)(O)C2(C)O[Te]3(OC12C)OC1(C)C(C)(O)C(C)(O)C1(C)O3 (configuration not stated)", "system under test": "SK-MEL-2 melanoma", "TGI": "> 100 µM"}
{"compound": "CCOC1C(Br)Cn2c(=O)c3cc4ccccc4cc3c(=O)n2C1C (configuration not stated)", "system under test": "SK-MEL-2 melanoma", "TGI": "> 100 µM"}
{"compound": "CCC(CC)NC1=C(NC(C)=O)C(=O)c2ccccc2C1=O", "system under test": "SK-MEL-2 melanoma", "TGI": "> 50 µM"}
{"compound": "N#Cc1c(-c2ccc(Cl)cc2)c2c(n(C3OC(CO)C(O)C(O)C3O)c1=S)CCCC2 (configuration not stated)", "system under test": "SK-MEL-2 melanoma", "TGI": "> 100 µM"}
{"compound": "Cc1cc(C)nc(NS(=O)(=O)c2ccc(Nc3c4ccccc4nc4ccc(C(=O)Nc5ccc(S(N)(=O)=O)cc5)cc34)cc2)n1", "system under test": "SK-MEL-2 melanoma", "TGI": "> 100 µM"}
{"compound": "O=C(/C=C/c1ccc(O)c(O)c1)OCC(OC(=O)/C=C/c1ccc(O)c(O)c1)C(=O)O (configuration not stated)", "system under test": "SK-MEL-2 melanoma", "TGI": "> 100 µM"}
{"compound": "COC(=O)[C@@H]1C=C[C@H](OC2OC(COC(C)=O)C(OC(C)=O)C(OC(C)=O)C2OC(C)=O)n2c(=O)n(-c3ccccc3)c(=O)n21 (some centres not stated)", "system under test": "SK-MEL-2 melanoma", "TGI": "5.05 µM"}
{"compound": "CS(=O)(=O)C(C#N)c1nc2ccccc2nc1Cl (configuration not stated)", "system under test": "SK-MEL-2 melanoma", "TGI": "> 100 µM"}
{"compound": "CN(C)CCNC(=O)c1cccc2c(=O)c3ccccc3oc12", "system under test": "SK-MEL-2 melanoma", "TGI": "98.9 µM"}
{"compound": "C=CCn1c(N)c(C#N)c(C#N)c1CCC", "system under test": "SK-MEL-2 melanoma", "TGI": "> 100 µM"}
{"compound": "Oc1ccc2ccccc2c1N=Nc1cccc2ccccc12", "system under test": "SK-MEL-2 melanoma", "TGI": "> 100 µM"}
{"compound": "CC(C)(C)C1=C(Br)C(C(C)(C)C)OP1(=O)O (configuration not stated)", "system under test": "SK-MEL-2 melanoma", "TGI": "> 100 µM"}
{"compound": "N/N=C\\c1c2ccccc2c(=O)n2c1oc1ccccc12", "system under test": "SK-MEL-2 melanoma", "TGI": "> 100 µM"}
{"compound": "CS(=O)(=O)Nc1ccc2ccccc2c1-c1c(NS(C)(=O)=O)ccc2ccccc12", "system under test": "SK-MEL-2 melanoma", "TGI": "> 25 µM"}
